Recorded MIC by entry
Test system: Klebsiella pneumoniae
TEST: Antibacterial activity against Klebsiella pneumoniae isolate VA367 with blaKPC-3, qnrB19, blaTEM-1, blaSHV-11, blaSHV-12, aac(6')-1b genes by Etest method
Assay type: functional
METRIC: MIC (µg/mL)

MOLECULE	METRIC	READOUT QUALIFIER	RECORDED RESULT
C[C@@H](O)[C@H]1C(=O)N2C(C(=O)O)=C(S[C@@H]3CN[C@H](C(=O)Nc4cccc(C(=O)O)c4)C3)[C@H](C)[C@H]12	MIC	=	16
C[C@@H](O)[C@H]1C(=O)N2C(C(=O)O)=C(SCCNC=N)C[C@H]12 [IMIPENEM ANHYDROUS]	MIC	=	16
C[C@H]1COc2c(N3CCN(C)CC3)c(F)cc3c(=O)c(C(=O)O)cn1c23.C[C@H]1COc2c(N3CCN(C)CC3)c(F)cc3c(=O)c(C(=O)O)cn1c23.O [LEVOFLOXACIN]	MIC	≥	32
O=C(O)c1cn(C2CC2)c2cc(N3CCNCC3)c(F)cc2c1=O [CIPROFLOXACIN]	MIC	≥	32
C[C@@H](O)[C@H]1C(=O)N2C(C(=O)O)=C(S[C@@H]3CN[C@H](C(=O)N(C)C)C3)[C@H](C)[C@H]12 [MEROPENEM]	MIC	=	8

From: ChEMBL document CHEMBL1255372
